Give measured growth inhibition for each item. Keep answers brief.
Tested on: SUDIPGXIII (diffuse intrinsic pontine glioma line)
Test: growth inhibition (% activity, log2 RLU normalised to DMSO / staurosporine); higher = more growth inhibition
Details: 33 µM
A number alone suffices; assume %.

Prompt: Consider the compound COc1c(C)c2c(c(O)c1C/C=C(\C)CCC(=O)O)C(=O)OC2 and give its recorded growth inhibition.
Response: -4.08

Prompt: Consider the compound CCC(=O)O[C@@H](O[P@](=O)(CCCCc1ccccc1)CC(=O)N1C[C@H](C2CCCCC2)C[C@H]1C(=O)O)C(C)C and give its recorded growth inhibition.
Response: -1.04

Prompt: Consider the compound NC(=O)c1cnccn1 and give its recorded growth inhibition.
Response: 1

Prompt: Consider the compound COc1c(N2CCNC(C)C2)c(F)cc2c(=O)c(C(=O)O)cn(C3CC3)c12 (stereo unspecified) and give its recorded growth inhibition.
Response: 1.42

Prompt: Consider the compound CN1CCN(C2=Nc3cc(Cl)ccc3Nc3ccccc32)CC1 and give its recorded growth inhibition.
Response: -1.11

Prompt: Consider the compound CC[C@H](C)C(=O)O[C@H]1C[C@@H](C)C=C2C=C[C@H](C)[C@H](CC[C@@H]3C[C@@H](O)CC(=O)O3)[C@H]21 and give its recorded growth inhibition.
Response: -0.657

Prompt: Consider the compound C=C1CC[C@H](O)C/C1=C/C=C1\CCC[C@]2(C)[C@@H]([C@H](C)/C=C/[C@H](C)C(C)C)CC[C@@H]12 and give its recorded growth inhibition.
Response: 0.866

Prompt: Consider the compound CCN(CC)CCCC(C)Nc1ccnc2cc(Cl)ccc12 (stereo unspecified) and give its recorded growth inhibition.
Response: 0.0881

Prompt: Consider the compound NC[C@@H]1O[C@H](O[C@H]2[C@@H](O)[C@H](O[C@@H]3[C@@H](O)[C@H](N)C[C@H](N)[C@H]3O[C@H]3O[C@H](CN)[C@@H](O)[C@H](O)[C@H]3N)O[C@@H]2CO)[C@H](N)[C@@H](O)[C@@H]1O and give its recorded growth inhibition.
Response: -0.235

Prompt: Consider the compound N=C(N)NC(=N)NCCc1ccccc1 and give its recorded growth inhibition.
Response: 2.1

Prompt: Consider the compound CCOC(=O)[C@H](CCc1ccccc1)N[C@H]1CCCN2CCC[C@@H](C(=O)O)N2C1=O and give its recorded growth inhibition.
Response: -0.861
